Tested on: Aspergillus flavus CCM 8363
procedure.text: Antifungal microdilution broth (EUCAST)
assay.conditions: Aspergillus flavus, CCM8363, 24 h, read-out: MIC AFla
Exercise: state measured MIC for each of the molecules provided.

Asked: Using the record for "O=C(Nc1nccs1)c1cnccn1" , state its measured MIC.
Given back: > 500 µM

Asked: Could you please provide reported MIC for "O=C(Nc1nccs1)c1ccnc(Cl)c1" ? Thanks!
Given back: > 500 µM

Asked: Identify the reported MIC for the following entry. "O=C(Nc1ncco1)c1ccncc1"
Given back: > 500 µM

Asked: State its MIC for this molecule: "Cc1cc(C(=O)Nc2ncco2)cc(Cl)n1"
Given back: > 500 µM

Asked: // fetch MIC given entry "O=C(Nc1nccs1)c1cccnc1"
Given back: > 500 µM

Asked: Quote MIC reported for O=C(Nc1ncco1)c1cnc2ccccc2n1 [Compound 10b] please.
Given back: > 500 µM

Asked: Give recorded MIC. "O=C(Nc1nccs1)c1cnc(Cl)cn1"
Given back: 500 µM

Asked: For the molecule O=C(Nc1nc(-c2ccccc2)co1)c1ccncc1 [Compound 13b] , give its measured MIC value.
Given back: > 500 µM

Asked: Provide one value: measured MIC of Cc1cncc(C(=O)Nc2nc(-c3ccccc3)co2)c1 [Compound 14b]
Given back: > 500 µM

Asked: Retrieve MIC measured for Cc1cc(C(=O)Nc2nc(-c3ccccc3)co2)cc(Cl)n1 [Compound 16b] and print it.
Given back: > 125 µM

The measured values listed here are drawn from paper PMC9143880.
